test: Food effect study (high fat, high calorie meal) in healthy volunteers; assay type: in vivo, human; settings: human, plasma, po, 30 mg, healthy volunteers, 30 mg single oral dose, 50:50 solid solution capsule; Fed (high fat, high calorie meal); read-out: Tmax, untransformed LSM
READOUT_NAME: Tmax (h)
Just the number in h, nothing appended.

Lookup result for Cc1ccc(NC(=O)[C@H]2CCCN(C(=O)c3c(C)cccc3F)[C@H]2c2ccc(NC3CCCC3)cc2)cc1C(F)(F)F ; measured Tmax: 5.38

###

assay: pH solubility profile of Compound 1 in buffers, water, HCl and biorelevant media; format: physicochemical; conditions: simulated gastric fluid; 0.1N HCl, actual pH 1.05
READOUT_NAME: solubility
State the value, then name its unit.

compound Cc1ccc(NC(=O)[C@H]2CCCN(C(=O)c3c(C)cccc3F)[C@H]2c2ccc(NC3CCCC3)cc2)cc1C(F)(F)F [Compound 1] , solubility observed: 8.05 µg/mL

###

Assay: Pharmacokinetics of solid solution capsules in dogs
Conditions: male, beagle, dog, in vivo, po, 20 mg, PO 20 mg/dog, capsule in 100% macrogol-40-glycerol hydroxystearate, Average of T1-T3
Procedure: Solid Solution capsules of Compound 1 comprising 50:50 macrogol-40-glycerol hydroxystearate:PEG-4000 or 100% macrogol-40-glycerol hydroxystearate were prepared using the general procedures described in Example 4. The PEG heating steps were omitted for the 100% macrogol-40 glycerol hydroxystearate formulations. These formulations were dosed in beagle dogs (male) at 20 mg per dog to evaluate the pharmacokinetic profile. […]
READOUT_NAME: Tmax (h)
Report the figure in h without appending any unit label.

Recorded Tmax (molecule Cc1ccc(NC(=O)[C@H]2CCCN(C(=O)c3c(C)cccc3F)[C@H]2c2ccc(NC3CCCC3)cc2)cc1C(F)(F)F ): 2.3

###

assay: Solubility of Compound 1 in alternative excipients/solvents (liquid formulations, cranberry juice dilution); assay type: physicochemical; settings: PEG400/EtOH/Transcutol P (50/45/5 v/v), organic solvent or mixture, PEG400/EtOH/Transcutol P (50/45/5 v/v), second listing; read-out: Solubility
READOUT_NAME: solubility (mg/mL)
The answer is to be given in mg/mL; state only the numeric part.

Sure, the documented solubility for Cc1ccc(NC(=O)[C@H]2CCCN(C(=O)c3c(C)cccc3F)[C@H]2c2ccc(NC3CCCC3)cc2)cc1C(F)(F)F [Compound 1] is 19.9

###

Assay: Pharmacokinetics of solid solution capsule in patients with ANCA associated vasculitis
Type: in vivo, Humans
Settings: human, in vivo, po, 30 mg, AAV patients, 30 mg twice daily oral, 50:50 solid solution capsules; Compound 1 + No Prednisone; read-out: Day 1 Tmax, Mean
Experimental: Solid Solution capsules of Compound 1 comprising 50:50 macrogol-40-glycerol hydroxystearate:PEG-4000 were prepared using the general procedures described in Example 4. Patients with AAV were randomized and double-blind in placebo-controlled clinical trial conducted in a step-wise manner to evaluate the efficacy and safety of Compound 1 formulated in a solid solution as described above with reduced or no prednisone in comparison with the standard of care full dose prednisone. […]
READOUT_NAME: Tmax (h)
Please state the figure in h; there is no need to write the unit.

Record Cc1ccc(NC(=O)[C@H]2CCCN(C(=O)c3c(C)cccc3F)[C@H]2c2ccc(NC3CCCC3)cc2)cc1C(F)(F)F [Compound 1] . Reported Tmax: 2.85
